biological target: full-length human PRMT1 isoform 1 (GST-tagged) (Homo sapiens); assay: PRMT1 Biochemical Assay (3H-SAM Flashplate, peptide substrate)
Sequence (Q99873 with tags, fused parts or gaps): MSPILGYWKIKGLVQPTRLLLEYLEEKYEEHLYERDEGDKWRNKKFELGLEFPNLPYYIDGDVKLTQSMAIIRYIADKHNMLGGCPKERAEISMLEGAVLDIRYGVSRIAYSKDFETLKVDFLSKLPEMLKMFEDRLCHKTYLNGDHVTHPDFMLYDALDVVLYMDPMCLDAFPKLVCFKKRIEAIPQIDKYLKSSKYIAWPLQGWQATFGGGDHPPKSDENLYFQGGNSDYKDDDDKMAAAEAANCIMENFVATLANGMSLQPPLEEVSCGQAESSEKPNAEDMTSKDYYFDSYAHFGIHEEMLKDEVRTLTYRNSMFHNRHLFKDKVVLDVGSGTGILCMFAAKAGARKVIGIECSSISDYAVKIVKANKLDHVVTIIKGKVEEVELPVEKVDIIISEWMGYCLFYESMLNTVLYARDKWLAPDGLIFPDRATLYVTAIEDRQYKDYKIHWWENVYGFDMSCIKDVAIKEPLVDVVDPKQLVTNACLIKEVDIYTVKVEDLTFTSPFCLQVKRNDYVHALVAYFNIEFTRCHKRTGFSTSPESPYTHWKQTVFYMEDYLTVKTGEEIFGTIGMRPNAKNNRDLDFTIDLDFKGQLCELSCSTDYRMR
Counter-ions that a name gives are not always drawn.
Assign IC50 to each entry below.

IC50 reading for CNCCN(C)Cc1c[nH]nc1[C@H]1CC[C@@H](O)C2(CCCCC2)C1 (single isomer, unassigned) [Compound 183] : < 100 nM

IC50 reading for CNCCN(C)Cc1c[nH]nc1[C@H]1CC[C@@H](C(=O)N(C)CC(C)C)CC1 [Compound 215] : < 100 nM

IC50 reading for CNCCN(C)Cc1c[nH]nc1C1CC(C)(C)OC(C)(C)C1 [Compound 59] : < 100 nM

IC50 reading for CNCCN(C)Cc1c[nH]nc1C1CC(OC(C)C)CC(OC(C)C)C1 (stereo not shown) [Compound 118] : 1010 to 3000 nM

IC50 reading for CNCCN(C)Cc1c[nH]nc1[C@H]1CC[C@H](N(CCCOC)C(=O)CCC(C)C)CC1 [Compound 243] : < 100 nM

IC50 reading for CNCCN(C)Cc1c[nH]nc1[C@H]1CC[C@@]2(CCOC2)CC1 [Compound 141] : < 100 nM

IC50 reading for CN(CCN)Cc1c[nH]nc1C1CCC2(CCCC2)CC1 [Compound 45] : < 100 nM

IC50 reading for CN(CCN)Cc1c[nH]nc1[C@H]1CC[C@@]2(CC1)CC(C)(C)CO2 [Compound 207] : < 100 nM

IC50 reading for CNCCN(C)Cc1c[nH]nc1[C@H]1CC[C@@]2(CCN(Cc3cc(F)cc(F)c3)C2=O)CC1 [Compound 126] : < 100 nM

IC50 reading for CNCCN(C)Cc1c[nH]nc1C1CCC2(CC1)C(=O)NC(=O)N2C (stereo not shown) [Compound 161] : < 100 nM

IC50 reading for CC[C@H]1CC[C@H](c2n[nH]cc2CN(C)CCNC)CC1 [Compound 148] : < 100 nM

IC50 reading for CNCCN(C)Cc1c[nH]nc1[C@H]1CC[C@H](N(CCOc2ccccc2)C(=O)CCOC)CC1 [Compound 219] : < 100 nM

IC50 reading for CNCCN(C)Cc1c[nH]nc1[C@H]1CC[C@H](O)C2(CCCCC2)C1 (racemic) [Compound 184] : < 100 nM

IC50 reading for CNCCN(C)Cc1c[nH]nc1C1CC(COC)CC(COC)C1 (stereo not shown) [Compound 138] : 101 to 1000 nM

IC50 reading for CNCCN(C)Cc1c[nH]nc1C1CCC2(CCCC2)OC1 (stereo not shown) [Compound 199] : < 100 nM

IC50 reading for CNCCN(C)Cc1c[nH]nc1C1CCC2(CCCO2)CC1 (stereo not shown) [Compound 51] : < 100 nM

IC50 reading for CNCCN(C)Cc1c[nH]nc1C1C[C@H](C(=O)N(C)CC(C)C)C(C)(C)[C@H](C(=O)N(C)CC(C)C)C1 (stereo partly shown) [Compound 267] : 3010 to 10000 nM

IC50 reading for CNCCN(C)Cc1c[nH]nc1[C@H]1CC[C@]2(CCCO2)OC1 [Compound 198] : 3010 to 10000 nM

IC50 reading for CNCCN(C)Cc1c[nH]nc1C1CCCC(COCCC(O)CO)C1 (stereo not shown) [Compound 113] : < 100 nM

IC50 reading for CNCCN(C)Cc1c[nH]nc1C1CCC2(CC1)CCN(CC(C)C)C2=O (stereo not shown) [Compound 164] : < 100 nM

IC50 reading for CNCCN(C)Cc1n[nH]cc1[C@H]1CC[C@@]2(CC1)CC(C)(C)CO2 [Compound 200, trifluoroacetic acid salt] : < 100 nM

IC50 reading for CCOCC1CC(c2n[nH]cc2CN(C)CCNC)CC(COCC)C1(C)C (stereo not shown) [Compound 87] : 101 to 1000 nM

IC50 reading for CNCCN(C)Cc1c[nH]nc1C1CCC(OCCOc2ccccc2)CC1 (stereo not shown) [Compound 136] : < 100 nM

IC50 reading for CNCCN(C)Cc1c[nH]nc1[C@H]1CC[C@H](N(CCOC)C(=O)CCC(C)C)CC1 [Compound 254] : < 100 nM

IC50 reading for CNCCN(C)Cc1c[nH]nc1C1CCC(CCOC)(CCOC)CC1 [Compound 174] : < 100 nM

IC50 reading for CNCCN(C)Cc1c[nH]nc1[C@H]1CC[C@H](OCCOc2ccccc2)CC1 [Compound 187] : 101 to 1000 nM

IC50 reading for CNCCN(C)Cc1c[nH]nc1[C@H]1CC[C@@]2(CCN(CC(C)C)C2=O)CC1 [Compound 129] : < 100 nM

IC50 reading for CNCCN(C)Cc1c[nH]nc1[C@H]1CC[C@@H](COC)CC1 [Compound 166] : < 100 nM

IC50 reading for CNCCN(C)Cc1c[nH]nc1[C@H]1CC[C@@]2(CCN(Cc3ccc(F)cc3)C2=O)CC1 [Compound 125] : < 100 nM

IC50 reading for CCOCC1CC(COCC)CC(c2n[nH]cc2CN(C)CCNC)C1 (stereo not shown) [Compound 119] : 101 to 1000 nM

IC50 reading for CNCCN(C)Cc1c[nH]nc1C1CCC(C)(C)[C@@H](C(=O)NCCC(C)C)C1 (stereo partly shown) [Compound 263] : < 100 nM

IC50 reading for CNCCN(C)Cc1c[nH]nc1[C@H]1CC[C@]2(CCN(Cc3cc(F)cc(F)c3)C2=O)CC1 [Compound 197] : < 100 nM

IC50 reading for CNCCN(C)Cc1c[nH]nc1C1=CCC(CCOC)(CCOC)CC1 [Compound 173] : < 100 nM

IC50 reading for CNCCN(C)Cc1c[nH]nc1[C@H]1CC[C@@H](C(=O)N(C)CCC(C)C)CC1 [Compound 210] : < 100 nM
